Each recorded value in this set is attributed to patent US20020103123A1.

- target: T1, human Y2 receptor (human, UniProt P49146)
- T1 sequence: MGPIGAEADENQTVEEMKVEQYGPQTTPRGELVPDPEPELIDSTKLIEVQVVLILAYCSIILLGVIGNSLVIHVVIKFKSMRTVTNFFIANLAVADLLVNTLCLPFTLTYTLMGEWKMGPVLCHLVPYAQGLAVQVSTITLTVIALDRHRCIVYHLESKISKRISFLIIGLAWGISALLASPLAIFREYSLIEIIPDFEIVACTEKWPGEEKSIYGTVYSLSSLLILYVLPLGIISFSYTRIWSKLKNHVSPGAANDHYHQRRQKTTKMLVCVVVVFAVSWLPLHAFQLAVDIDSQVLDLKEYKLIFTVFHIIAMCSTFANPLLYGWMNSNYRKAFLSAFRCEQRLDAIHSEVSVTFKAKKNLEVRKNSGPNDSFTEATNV
- measurement notes: 125I-PYY displacement, COS-7 membranes; tested only up to 100 nM
pKi: −log10 of the molar value.
assay metric: pKi

Qu. GET /values?readout=pKi&item= TPEQMAQYAADLRRYINMLTRPRY [human PP13-36]
Ans. < 7.00
